Tested on: German cockroaches
Protocol Summary: Insecticidal aerosol efficacy, sealed drum apparatus (GB/T13917.2-2009), German cockroaches
Assay type: in vivo
Measurement Parameters: aerosol 0.3% active ingredient, 1 g sprayed, 72 h
Recorded Endpoint: Mortality rate (%)

>>> reading("CC1(C)C(/C=C\\C#N)C1C(=O)OCc1c(F)c(F)cc(F)c1F (centres unmarked)")
95
>>> reading("COCc1c(F)c(F)c(COC(=O)C2C(C)(C)C2(C)C)c(F)c1F [tetramethylfluthrin, reference compound]")
65
>>> reading("CC1(C)C(/C=C\\C#N)C1C(=O)OCc1c(F)ccc(F)c1F (centres unmarked)")
90
>>> reading("COCc1c(F)c(F)c(COC(=O)C2C(/C=C(/C)C#N)C2(C)C)c(F)c1F (centres unmarked) [Momfluorothrin, reference compound]")
60
>>> reading("CC1(C)C(/C=C\\C#N)C1C(=O)OCc1cc(F)cc(F)c1F (centres unmarked)")
95
